Measured values drawn from paper PMC10397247 for this set.

# study_target: T1, O8-bP
# T1 chain: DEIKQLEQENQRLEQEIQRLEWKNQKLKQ
# procedure_text: two-hybrid library CCNG1;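 note: natural log of median RNA to DNA barcode read ratio; higher means stronger binding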
Listing of entries alongside the reported interaction score.
Please reply with the value in numeric form only.

These recorded examples may help you get a feel for the data.
DKIKQLKQKNQRLKQEIQRLEWKNQKLKQ [O16-bP]; 1.44
DENKQLEQEIQRLEQENQRLEWKIQKLKQ [O14-bP]; -2.05
DENKQLEQEIQRLEQKNQRLKWEIQKLEQ [O5-bP]; -0.837

Q) Fill in reported interaction score for this entry: DKIKQLKQKNQRLKQKIQRLKWENQKLEQ [O7-bP]
A) 1.3

Q) Return reported interaction score. Input binder: DEIKQLEQKIQRLKQENQRLEWENQKLEQ [O3-bP]
A) -0.905
